Every entry's value here was drawn from PubChem BioAssay (EPA / NIEHS).

ASSAY_TARGET: Estrogen receptor (Homo sapiens)
METHOD: OT_ER_ERaERa_0480: Odyssey Thera (OT) 8-hour HEK293T Protein-Complementation Assay for Estrogen Receptor-alpha/-alpha Homodimer (AID 2283351);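 further: rise in fluorescence from reassembled reporter fragments on ERα LBD homodimer in nucleus or whole cell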
Inconclusive results are not listed. Calls of active or inactive are those of the source. How the source made its calls: active means hit-call score of the fitted dose curve at least 0.9, where 1 is the maximum; inconclusive means response in the unintended direction; inactive means score below 0.9.
MEASUREMENT_TYPE: AC50

Consider the worked cases shown below.
* CC(CCl)OP(=O)(OC(C)CCl)OC(C)CCl (stereo not drawn) | inactive
* CC/C=C\CCOC(C)=O | inactive
* CNC(=S)NC | inactive
* O=S(=O)(O)c1ccc2ccccc2c1 | inactive
* Cc1cc(C)cc(O)c1 | inactive
* [Co] | inactive

Go through the list and state AC50 for each entry.
1. C#C[C@]1(O)CC[C@H]2[C@@H]3CCc4cc(OC)ccc4[C@H]3CC[C@@]21C
2. CCCCCCOC(=O)c1ccccc1
3. CCCCCCOC(=O)c1ccccc1O
4. CC(C)OC(=O)c1ccccc1C(=O)OC(C)C
5. CC(Cc1ccc(O)c(O)c1)C(C)Cc1ccc(O)c(O)c1 (stereo not drawn)
6. CCCCC(CC)COP(=O)(O)OCC(CC)CCCC (stereo not drawn)
7. C1COCCN1

A.
1. 9.95 µM (active)
2. inactive
3. inactive
4. 62.8 µM (active)
5. 11.9 µM (active)
6. inactive
7. inactive

###

Read-out: Low-density lipoprotein receptor (LDLR), LDLR (gene 3949)
METHOD: BSK_CASM3C_LDLR: BioMAP Diversity Plus: CASM3C Assay for Low-density lipoprotein receptor (LDLR) Biomarker Activity (AID 2283045);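 further: LDLR protein level on the cell surface quantified by ELISA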
SETUP_CONDITIONS: primary human coronary artery smooth muscle cells; actives raise or lower the signal
Active and inactive are the calls of the source. The calls were made as follows: active = hit-call score of the fitted dose curve at least 0.9, where 1 is the maximum; inactive = score below 0.9.
Your answer must be one of the following: active, inactive

Some solved entries appear below for comparison.
• O=C(O)C(F)(F)C(F)(F)C(F)(F)C(F)(F)C(F)(F)C(F)(F)C(F)(F)C(F)(F)Cl = inactive
• CCCCC(CC)COP(=O)(O)OCC(CC)CCCC (stereo not drawn) = inactive
• OCCCC(F)(F)C(F)(F)C(F)(F)F = inactive
• O=S(=O)(OCCOC(F)(F)F)C(F)(F)F = inactive
• O=C(CC(=O)C(F)(F)C(F)(F)F)C(F)(F)F = inactive

Q. Called result for `CCCCNc1ccccc1`
A. inactive

Q. Called result for `FC(F)(F)C(F)(F)C(F)(F)C(F)(F)C(F)(F)C(F)(F)C(F)(F)C(F)(F)F`
A. inactive

Q. Called result for `FC(F)(F)C(F)(F)C(F)(F)C(F)(F)C(F)(F)C(F)(F)C(F)(F)Br`
A. inactive

Q. Called result for `OCC(F)(F)C(F)(F)C(F)(F)C(F)(F)C(F)(F)C(F)F`
A. inactive

Q. Called result for O=C(O)C(F)(OC(F)(F)C(F)(OC(F)(F)C(F)(OC(F)(F)C(F)(F)C(F)(F)F)C(F)(F)F)C(F)(F)F)C(F)(F)F (stereo not drawn)
A. inactive

###

Read-out: Human Leukocyte Antigen - DR isotype (HLADR), HLA-DRA (gene 3122)
METHOD: BSK_BE3C_HLADR: BioMAP Diversity Plus: BE3C Assay for Human Leukocyte Antigen - DR isotype (HLADR) Biomarker Activity (AID 2283032)
SETUP_CONDITIONS: primary human bronchial epithelial cells; actives raise or lower the signal
Active and inactive are the calls of the source. Rule for the calls: active = hit-call score of the fitted dose curve at least 0.9, where 1 is the maximum; inactive = score below 0.9.
Your answer must be one of the following: active, inactive

Some solved entries appear below for comparison.
- C=CC(F)(F)C(F)(F)C(F)(F)C(F)(F)C(F)(F)C(F)(F)C(F)(F)C(F)(F)F: inactive
- Cc1ccc(S(=O)(=O)OCC(F)(F)C(F)(F)C(F)(F)C(F)(F)C(F)(F)C(F)F)cc1: inactive
- O=C(O)C(F)(F)C(F)(F)F: inactive
- CS(C)(=O)=O: inactive
- O=C(CC(=O)C(F)(F)C(F)(F)F)C(F)(F)F: inactive
- C=C(C)C(=O)OCC(F)(F)C(F)(F)C(F)(F)C(F)(F)C(F)(F)C(F)(F)C(F)(F)F: inactive
- FC(F)(F)C(F)(F)C(F)(F)C(F)(F)C(F)(F)C(F)(F)C(F)(F)C(F)(F)F: inactive
- O=C(O)C(F)(F)C(F)(F)C(F)(F)C(F)(F)C(F)(F)C(F)(F)C(F)(F)C(F)(F)C(F)(F)C(F)F: active
- O=C(O)C(F)(F)C(F)(F)OC(F)(F)F: inactive
- CC(CCl)OP(=O)(OC(C)CCl)OC(C)CCl (stereo unspecified): inactive

Q. Called result for `CCCCOCCOCCOC(=O)CCCCC(=O)OCCOCCOCCCC`
A. inactive

###

Read-out: Interferon-gamma inducible Protein 10 (IP10), CXCL10 (gene 3627)
METHOD: BSK_hDFCGF_IP10: BioMAP Diversity Plus: hDFCGF Assay for Interferon-gamma inducible Protein 10 (IP10) Biomarker Activity (AID 2283053)
SETUP_CONDITIONS: primary human foreskin fibroblasts; actives raise or lower the signal
Activity calls are given as the source filed them. The calls were made as follows: active = hit-call score of the fitted dose curve at least 0.9, where 1 is the maximum; inactive = score below 0.9.
Your answer must be one of the following: 1 for active, 0 for inactive

Some solved entries appear below for comparison.
* Cc1ccc(S(=O)(=O)OCC(F)(F)C(F)(F)C(F)(F)C(F)(F)C(F)(F)C(F)F)cc1 | 0
* O=S(=O)(O)C(F)(F)C(F)(F)C(F)(F)C(F)(F)C(F)(F)C(F)(F)C(F)(F)F | 0
* FC(F)(F)C(F)(F)C(F)(F)C(F)(F)C(F)(F)C(F)(F)C(F)(F)Br | 0
* O=C(O)C(F)(F)C(F)(F)C(F)(F)F | 0

Q. Called result for `CC(C)(C)C(=O)CC(=O)C(F)(F)C(F)(F)C(F)(F)F`
A. 0

Q. Called result for `OCC(F)(F)C(F)(F)C(F)(F)C(F)F`
A. 0

Q. Called result for `FC(F)(F)C(F)(F)C(F)(F)C(F)(F)C(F)(F)C(F)(F)CCS`
A. 0

Q. Called result for `CC(=O)Nc1ccc(N=Nc2cc(C)ccc2O)cc1`
A. 1

Q. Called result for `O=C(CC(=O)C(F)(F)C(F)(F)F)C(F)(F)F`
A. 0

Q. Called result for `OCC(F)(F)C(F)(F)C(F)(F)C(F)(F)C(F)(F)C(F)F`
A. 0

Q. Called result for `CCCCNc1ccccc1`
A. 0

###

METHOD: ATG_TCF_b_cat_CIS: Attagene CIS-FACTORIAL HepG2 Assay for human T-Cell-Factor with beta-catenin (TCF/b-cat) (AID 2282965)
SETUP_CONDITIONS: HepG2 TCF/beta-catenin cis-reporter transcription, actives raise or lower the signal
Calls of active or inactive are those of the source. How the source made its calls: active means hit-call score of the fitted dose curve at least 0.9, where 1 is the maximum; inactive means score below 0.9.
Your answer must be one of the following: 1 for active, -1 for inactive

Some solved entries appear below for comparison.
• CCCCCCS = 1
• CCN(CC)c1ccc2c(C)cc(=O)oc2c1 = -1
• FC(F)(F)C(F)(F)C(F)(F)C(F)(F)CCI = -1
• NC(=O)C(F)(F)C(F)(F)C(F)(F)C(F)(F)F = -1

Q. Called result for `CCCCCCCOC(=O)c1ccccc1C(=O)OCCCCCCC`
A. -1

Q. Called result for CC(CCl)OP(=O)(OC(C)CCl)OC(C)CCl (centres undefined)
A. -1

###

Read-out: Low-density lipoprotein receptor (LDLR), LDLR (gene 3949)
METHOD: BSK_CASM3C_LDLR: BioMAP Diversity Plus: CASM3C Assay for Low-density lipoprotein receptor (LDLR) Biomarker Activity (AID 2283045);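 further: LDLR protein level on the cell surface quantified by ELISA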
SETUP_CONDITIONS: primary human coronary artery smooth muscle cells; actives raise or lower the signal
The source made the active and inactive calls. How the source made its calls: active means hit-call score of the fitted dose curve at least 0.9, where 1 is the maximum; inactive means score below 0.9.
MEASUREMENT_TYPE: outcome

Consider the worked cases shown below.
• O=C(O)C(F)(F)C(F)(F)C(F)F = inactive
• O=P(O)(O)OCCC(F)(F)C(F)(F)C(F)(F)C(F)(F)C(F)(F)C(F)(F)F = inactive
• O=C(O)C(F)(F)C(F)(F)C(F)(F)F = inactive
• CCCCCCC(C)OC(=O)CCCCC(=O)OC(C)CCCCCC (stereo not given) = inactive

From here, focus on the item given below.
Q. Give reported outcome value for `CC(C)(C)C(=O)CC(=O)C(F)(F)C(F)(F)C(F)(F)F`
A. inactive

###

Read-out: Vascular cell adhesion molecule 1 (VCAM1), VCAM1 (gene 7412)
METHOD: BSK_CASM3C_VCAM1: BioMAP Diversity Plus: CASM3C Assay for Vascular cell adhesion molecule 1 (VCAM1) Biomarker Activity (AID 2283055);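 further: VCAM-1 protein level quantified by ELISA on the cells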
SETUP_CONDITIONS: primary human coronary artery smooth muscle cells; actives raise or lower the signal
Activity calls are given as the source filed them. Rule for the calls: active = hit-call score of the fitted dose curve at least 0.9, where 1 is the maximum; inactive = score below 0.9.
Your answer must be one of the following: y = active, n = inactive

Some solved entries appear below for comparison.
- FC(F)(F)C(F)(F)CNCC(F)(F)C(F)(F)F: n
- O=C(O)C(F)(F)C(F)(F)F: n
- CCCCOCCOCCOC(=O)CCCCC(=O)OCCOCCOCCCC: n
- CCCCCCCCCCCCCCCC[N+](C)(C)Cc1ccccc1: y

Q. Called result for `FC(F)(F)C(F)(F)C(F)(F)C(F)(F)C(F)(F)C(F)(F)C(F)(F)Br`
A. n

Q. Called result for `CCc1c(Br)c(Br)c(Br)c(Br)c1Br`
A. n

Q. Called result for `COC(=O)CCC(F)(F)C(F)(F)C(F)(F)C(F)(F)F`
A. n

Q. Called result for `CCO[Si](CCC(F)(F)C(F)(F)C(F)(F)C(F)(F)C(F)(F)C(F)(F)F)(OCC)OCC`
A. n

Q. Called result for `C=C(C)C(=O)OCCC(F)(F)C(F)(F)C(F)(F)C(F)(F)C(F)(C(F)(F)F)C(F)(F)F`
A. n

Q. Called result for `Oc1ccc(Nc2ccccc2)cc1`
A. n

Q. Called result for `CO[Si](OC)(c1ccccc1)c1ccccc1`
A. y

Q. Called result for `O=C(O)C(F)(F)C(F)(F)C(F)(F)F`
A. n

Q. Called result for CCCCCCC(C)OC(=O)CCCCC(=O)OC(C)CCCCCC (stereo not given)
A. n

Q. Called result for CC(CCl)OP(=O)(OC(C)CCl)OC(C)CCl (stereo not given)
A. n

Q. Called result for `O=C(O)C(F)(F)C(F)(F)C(F)(F)C(F)(F)C(F)(F)C(F)(F)C(F)(F)C(F)(F)C(F)(F)C(F)(F)C(F)(F)C(F)(F)C(F)(F)F`
A. n

Q. Called result for `OCC(F)(F)C(F)(F)C(F)(F)C(F)(F)C(F)(F)C(F)F`
A. n
